- System: SR leukemia
- run_description: NCI tumour cell line growth inhibition, 48 h; in the data active = GI50 below about 0.43 µM; inactive = the rest
Field 'call' accepts active, inactive

Input line: What did the test return for `O=C(N/N=C\c1ccc(N(CCCl)CCCl)cc1[N+](=O)[O-])c1cccnc1` ?
Output line: inactive

Input line: What did the test return for CC(N)(Cc1c[nH]c2cccc(F)c12)C(=O)O (stereo not given) ?
Output line: inactive

Input line: What did the test return for COC(=O)C1=C(O)[C@H](C(=O)OC)C2(O)C(C(=O)OC)[C@H](c3ccc(OC(=O)C(C)c4ccc(CC(C)C)cc4)cc3)C[C@@H]1[C@@H]2C(=O)OC (stereo not given in full) ?
Output line: inactive

Input line: What did the test return for `CCCCCCCCCCCCCC[N+](C)(C)CCCCCCCCCCCCCC` ?
Output line: inactive

Input line: What did the test return for `COc1cccc(CC(C)=C(c2ccc(OCCN3CCCCC3)cc2)c2ccc(OCCN3CCCCC3)cc2)c1` ?
Output line: active
